What Toxilight HepG2 % viability at 10 μM was measured for each of the following?
# Test system: HepG2 cells
# ASSAY COMMENT: Toxilight BioAssay (adenylate kinase release), HepG2
# Type: cell-based
# CONDITION CONTEXT: 24 hours exposure, mean ± SD of triplicates
One number for each entry, in %.

COMPOUND | TESTED ON | Toxilight HepG2 % viability at 10 μM (%)
CC12C(=O)N(c3cc(Cl)cc(Cl)c3)C(=O)C1C2(c1ccccc1)c1ccccc1 (single isomer, unassigned) [4b enantiomer A] | HepG2 cells | 120
C[C@]12C(=O)N(c3cc(Cl)cc(Cl)c3)C(=O)[C@H]1[C@H]2c1ccc(C#N)cc1 (racemic) [4′h (racemate)] | HepG2 cells | 78.3
C[C@]12C(=O)N(c3cc(Cl)cc(Cl)c3)C(=O)[C@H]1[C@H]2c1ccc(OC(F)(F)F)cc1 (racemic) [4′g (racemate)] | HepG2 cells | 99.8
C[C@]12C(=O)N(c3cc(Cl)cc(Cl)c3)C(=O)[C@H]1[C@H]2c1ccc(Br)cc1 (racemic) [4′f (racemate)] | HepG2 cells | 115.6

I am curious: what Toxilight HepG2 % viability at 10 μM value has been reported for C[C@]12C(=O)N(c3cc(Cl)cc(Cl)c3)C(=O)[C@H]1C2(c1ccccc1)c1ccccc1 (racemic) [4b (racemate)] ? 124

----------
Provide the recorded CellTiter-Glo HepG2 % viability at 10 μM for the entries that follow.
# Tested on: HepG2 cells
# ASSAY COMMENT: CellTiter-Glo Luminescent Cell Viability Assay (ATP), HepG2
# Type: cell-based
# CONDITION CONTEXT: 24 hours exposure, mean ± SD of triplicates
Give bare numbers, in %.

Previously resolved entries follow.
COMPOUND | REPORTED MEASUREMENT
C[C@]12C(=O)N(c3cc(Cl)cc(Cl)c3)C(=O)[C@H]1[C@H]2c1ccc(OC(F)(F)F)cc1 (racemic) [4′g (racemate)] | 102.6
CC12C(=O)N(c3cc(Cl)cc(Cl)c3)C(=O)C1C2(c1ccccc1)c1ccccc1 (single isomer, unassigned) [4b enantiomer A] | 101.5
C[C@]12C(=O)N(c3cc(Cl)cc(Cl)c3)C(=O)[C@H]1[C@H]2c1ccc(Br)cc1 (racemic) [4′f (racemate)] | 101.6
C[C@]12C(=O)N(c3cc(Cl)cc(Cl)c3)C(=O)[C@H]1C2(c1ccccc1)c1ccccc1 (racemic) [4b (racemate)] | 98.4

Now examine the next entry.
Which CellTiter-Glo HepG2 % viability at 10 μM reading was recorded for the compound C[C@]12C(=O)N(c3cc(Cl)cc(Cl)c3)C(=O)[C@H]1[C@H]2c1ccc(C#N)cc1 (racemic) [4′h (racemate)] ? 103.7

----------
Field: pIC50. Provide a value for each of the compounds that follow.
# TESTED ON: LFA-1 (Homo sapiens)
# Construct: endogenous in cells
# ASSAY COMMENT: V well cell adhesion assay, LFA-1-mediated Jurkat cell binding to ICAM-1 (LFA-1 adhesion)
# CONDITION CONTEXT: Jurkat cells on ICAM-1/Fc; mean ±SD of ≥3 independent experiments in triplicates or single experiments in triplicates
One number for each entry, as −log10 of the molar value.

# count of solved cases: 3
COMPOUND | pIC50
CC12C(=O)N(c3cc(Cl)cc(Cl)c3)C(=O)C1C2(c1ccccc1)c1ccncc1 (single isomer, unassigned) [4 o or 4′o diastereomer II (racemate)] | 6.34
C[C@]12C(=O)N(c3cc(Cl)cc(Cl)c3)C(=O)[C@H]1[C@H]2c1ccc(OC(F)(F)F)cc1 (racemic) [4′g (racemate)] | 6.26
CCOC(=O)[C@@]1(c2ccc(Br)cc2)[C@@H]2C(=O)N(c3cc(Cl)cc(Cl)c3)C(=O)[C@@]21C (racemic) [4′j (racemate)] | 6.43

Dear colleague, I am looking for the recorded pIC50 of the following compound: C[C@]12C(=O)N(c3cc(Cl)cc(Cl)c3)C(=O)[C@H]1[C@H]2c1ccccc1 (racemic) [4′d (racemate)] 5.81

----------
# TESTED ON: LFA-1 (Homo sapiens)
# Construct: endogenous in cells
# ASSAY COMMENT: V well cell adhesion assay, LFA-1-mediated Jurkat cell binding to ICAM-1 (LFA-1 adhesion)
# CONDITION CONTEXT: Jurkat cells on ICAM-1/Fc; mean ±SD of ≥3 independent experiments in triplicates or single experiments in triplicates
PROPERTY: IC50 (nM)
Numbers only, in nM.

MOLECULE | IC50 [nM]
COc1ccc(C2(c3ccc(Cl)cc3)C3C(=O)N(c4cc(Cl)cc(Cl)c4)C(=O)C32C)cc1 (single isomer, unassigned) [4s or 4′s diastereomer II (racemate)] | 153
N#Cc1ccc(C2(c3ccc(OC(F)(F)F)cc3)C3C(=O)N(c4cc(Cl)cc(Cl)c4)C(=O)C32)cc1 (single isomer, unassigned) [4r or 4′r diastereomer II] | 132
O=C1[C@@H]2[C@H](C(=O)N1c1cc(Cl)cc(Cl)c1)[C@@H]2c1ccccc1 | 1590

Reported IC50, molecule C[C@]12C(=O)N(c3cc(Cl)cc(Cl)c3)C(=O)[C@H]1[C@H]2c1ccc(C#N)cc1 (racemic) [4′h (racemate)] : ____ 147

----------
# TESTED ON: LFA-1 (Homo sapiens)
# Construct: endogenous in cells
# ASSAY COMMENT: V well cell adhesion assay, LFA-1-mediated Jurkat cell binding to ICAM-1 (LFA-1 adhesion)
# CONDITION CONTEXT: Jurkat cells on ICAM-1/Fc; mean ±SD of ≥3 independent experiments in triplicates or single experiments in triplicates
Answer each item with its documented pIC50.
One number for each entry, as −log10 of the molar value.

Okay, here is my list. What is pIC50 for each of these?
1. C[C@]12C(=O)N(c3cc(Cl)cc(Cl)c3)C(=O)[C@H]1[C@H]2c1ccc(Br)cc1 (racemic) [4′f (racemate)]
2. O=C1[C@@H]2[C@H](C(=O)N1c1cc(Cl)cc(Cl)c1)[C@@H]2c1ccc(Br)cc1
3. COc1ccc(C2(c3ccc(Cl)cc3)C3C(=O)N(c4cc(Cl)cc(Cl)c4)C(=O)C32C)cc1 (single isomer, unassigned) [4s or 4′s diastereomer I (racemate)]
4. C[C@]12C(=O)N(c3cc(Cl)cc(Cl)c3)C(=O)[C@H]1[C@@]2(C(=O)N1CCOCC1)c1ccc(OC(F)(F)F)cc1 (racemic) [4′m (racemate)]
5. CC12C(=O)N(c3cc(Cl)cc(Cl)c3)C(=O)C1C2(c1ccc(C#N)cc1)c1ccc(OC(F)(F)F)cc1 (single isomer, unassigned) [4i/4′i diastereomer II (racemate)]
6. CC12C(=O)N(c3cc(Cl)cc(Cl)c3)C(=O)C1C2(c1ccccc1)c1ccco1 (single isomer, unassigned) [4t or 4′t Diastereomer I (racemate)]

6.15
5.48
5.74
6.39
7.74
6.06

----------
Consider the following compounds; for each one, report its mAb R7.1 binding % inhibition at 1 μM.
# TESTED ON: LFA-1 (Homo sapiens, UniProt P20701)
# Construct: endogenous in cells; host or cells: Jurkat cells
# Sequence (P20701 26-1170): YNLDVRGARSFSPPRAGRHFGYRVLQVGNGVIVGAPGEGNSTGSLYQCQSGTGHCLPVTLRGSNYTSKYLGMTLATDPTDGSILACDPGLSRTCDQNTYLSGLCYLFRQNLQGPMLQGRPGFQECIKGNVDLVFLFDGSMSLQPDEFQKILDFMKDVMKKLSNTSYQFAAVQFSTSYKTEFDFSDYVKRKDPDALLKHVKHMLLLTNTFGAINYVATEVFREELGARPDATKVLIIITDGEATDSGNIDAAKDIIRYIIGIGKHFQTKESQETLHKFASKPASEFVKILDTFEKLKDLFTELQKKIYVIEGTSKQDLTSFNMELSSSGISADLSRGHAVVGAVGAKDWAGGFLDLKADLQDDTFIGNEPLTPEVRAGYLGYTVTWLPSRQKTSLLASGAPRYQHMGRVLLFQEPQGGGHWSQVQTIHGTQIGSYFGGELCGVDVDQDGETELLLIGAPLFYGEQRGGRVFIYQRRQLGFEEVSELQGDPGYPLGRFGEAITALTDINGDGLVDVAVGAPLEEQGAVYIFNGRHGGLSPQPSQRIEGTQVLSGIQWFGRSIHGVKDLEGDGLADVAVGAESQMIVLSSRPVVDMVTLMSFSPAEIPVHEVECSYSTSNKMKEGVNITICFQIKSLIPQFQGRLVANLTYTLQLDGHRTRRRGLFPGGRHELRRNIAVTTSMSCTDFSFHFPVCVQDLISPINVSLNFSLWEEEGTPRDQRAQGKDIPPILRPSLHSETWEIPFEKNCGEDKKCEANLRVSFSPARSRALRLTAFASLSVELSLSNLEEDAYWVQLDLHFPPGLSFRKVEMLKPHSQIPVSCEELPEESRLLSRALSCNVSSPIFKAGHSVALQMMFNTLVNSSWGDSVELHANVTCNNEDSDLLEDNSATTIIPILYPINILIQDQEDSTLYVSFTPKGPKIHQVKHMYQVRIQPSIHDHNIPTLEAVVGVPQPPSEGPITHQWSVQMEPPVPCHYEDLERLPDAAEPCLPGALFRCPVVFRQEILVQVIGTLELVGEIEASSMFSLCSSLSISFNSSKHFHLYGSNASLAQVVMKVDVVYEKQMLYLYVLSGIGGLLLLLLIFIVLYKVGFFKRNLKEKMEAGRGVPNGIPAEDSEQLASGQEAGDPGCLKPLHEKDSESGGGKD
# Sequence (P05107 23-769 partner): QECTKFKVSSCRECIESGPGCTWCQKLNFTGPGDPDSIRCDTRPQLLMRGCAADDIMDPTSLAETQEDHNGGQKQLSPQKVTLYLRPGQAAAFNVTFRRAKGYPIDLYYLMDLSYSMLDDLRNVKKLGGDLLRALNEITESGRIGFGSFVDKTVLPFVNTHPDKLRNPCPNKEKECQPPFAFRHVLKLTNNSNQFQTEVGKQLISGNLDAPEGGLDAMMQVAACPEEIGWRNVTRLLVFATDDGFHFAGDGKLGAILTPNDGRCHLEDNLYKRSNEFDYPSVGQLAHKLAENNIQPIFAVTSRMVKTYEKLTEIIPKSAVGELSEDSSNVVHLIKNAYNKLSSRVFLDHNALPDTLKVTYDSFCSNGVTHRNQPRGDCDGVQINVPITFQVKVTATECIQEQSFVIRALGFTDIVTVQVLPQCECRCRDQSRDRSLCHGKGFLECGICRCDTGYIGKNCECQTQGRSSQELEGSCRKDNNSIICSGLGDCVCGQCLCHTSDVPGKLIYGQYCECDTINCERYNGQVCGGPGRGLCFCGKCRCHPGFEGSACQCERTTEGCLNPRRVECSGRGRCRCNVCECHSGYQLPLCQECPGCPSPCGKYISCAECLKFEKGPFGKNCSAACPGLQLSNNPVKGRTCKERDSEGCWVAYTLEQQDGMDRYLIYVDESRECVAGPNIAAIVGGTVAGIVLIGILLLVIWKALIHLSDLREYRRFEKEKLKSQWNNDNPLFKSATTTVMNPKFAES
# ASSAY COMMENT: Flow cytometry, mAb R7.1 binding to LFA-1 expressed on leukocytes
# Format: cell-based
# CONDITION CONTEXT: Jurkat cells or human PBMCs, values of independent experiments, 1 µM
Answers are plain numbers, in %.

Consider the worked cases shown below.
COMPOUND | OUTPUT UNIT | mAb R7.1 binding % inhibition at 1 μM
O=C1C2C(C(=O)N1c1cc(Cl)cc(Cl)c1)C2(c1ccncc1)c1ccc(OC(F)(F)F)cc1 (single isomer, unassigned) [4w or 4′w diastereomer I] | % | 95.7
C[C@]12C(=O)N(c3cc(Cl)cc(Cl)c3)C(=O)[C@H]1[C@H]2c1ccc(OC(F)(F)F)cc1 (racemic) [4′g (racemate)] | % | 94.1
C[C@]12C(=O)N(c3cc(Cl)cc(Cl)c3)C(=O)[C@H]1[C@H]2c1ccc(Br)cc1 (racemic) [4′f (racemate)] | % | 91.7
CC12C(=O)N(c3cc(Cl)cc(Cl)c3)C(=O)C1C2(c1ccncc1)c1ccc(OC(F)(F)F)cc1 (single isomer, unassigned) [4x or 4′x diastereomer I (racemate)] | % | 98.4
C[C@]12C(=O)N(c3cc(Cl)cc(Cl)c3)C(=O)[C@H]1C2(c1ccccc1)c1ccccc1 (racemic) [4b (racemate)] | % | 80.0

Please supply mAb R7.1 binding % inhibition at 1 μM for each of the following items, keeping them in order.
1. C[C@]12C(=O)N(c3cc(Cl)cc(Cl)c3)C(=O)[C@H]1[C@H]2c1ccc(C#N)cc1 (racemic) [4′h (racemate)]
2. O=C1C2C(C(=O)N1c1cc(Cl)cc(Cl)c1)C2(c1ccncc1)c1ccc(OC(F)(F)F)cc1 (single isomer, unassigned) [4w or 4′w diastereomer II]

95.8
45.7

What value of measured mAb R7.1 binding % inhibition at 1 μM is listed for CC12C(=O)N(c3cc(Cl)cc(Cl)c3)C(=O)C1C2(c1ccncc1)c1ccc(OC(F)(F)F)cc1 (single isomer, unassigned) [4x or 4′x diastereomer II (racemate)] ? 76.9
